Cited source: patent US5688807A

target: Human 5-HT2B (Homo sapiens)
Construct: expressed in transfected cells
Sequence (P41595 whole entry): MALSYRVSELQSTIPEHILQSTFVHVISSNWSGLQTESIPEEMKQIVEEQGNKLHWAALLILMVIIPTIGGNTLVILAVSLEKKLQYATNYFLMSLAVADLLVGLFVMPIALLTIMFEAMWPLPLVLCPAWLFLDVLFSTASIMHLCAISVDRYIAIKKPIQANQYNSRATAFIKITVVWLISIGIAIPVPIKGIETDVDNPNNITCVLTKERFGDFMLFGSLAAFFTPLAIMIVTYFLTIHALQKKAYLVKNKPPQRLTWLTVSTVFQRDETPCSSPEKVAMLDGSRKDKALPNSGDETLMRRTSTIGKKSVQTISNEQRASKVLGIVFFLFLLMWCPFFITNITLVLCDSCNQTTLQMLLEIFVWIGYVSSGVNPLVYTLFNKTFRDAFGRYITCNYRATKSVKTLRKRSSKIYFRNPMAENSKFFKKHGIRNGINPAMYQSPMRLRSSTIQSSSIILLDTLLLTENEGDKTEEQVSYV
methodSummary: [3H]Serotonin radioligand binding, human 5-HT2B;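 further: competition of tritiated serotonin binding to cell membranes, bound radioactivity on filters counted by liquid scintillation, IC50 from logistic fits converted to Ki with the Cheng-Prusoff equation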
pKi: −log10 of the molar value.

[
  {
    "molecule": "COc1ccc(CC2NCCc3c2[nH]c2ccc(C)cc32)c(Br)c1OC (centres unmarked)",
    "pKi": 9.43
  },
  {
    "molecule": "CN1CC(C(=O)N[C@H]2CC[C@H](O)CC2)CC2c3cccc4[nH]cc(c34)CC21 (some centres unmarked)",
    "pKi": 7.91
  },
  {
    "molecule": "CC(C)n1cc2c3c(cccc31)C1CC(C(=O)N[C@H]3CC[C@H](O)CC3)CN(C)C1C2 (some centres unmarked)",
    "pKi": 8.20
  },
  {
    "molecule": "c1ccc2c(N3CCNCC3)cccc2c1",
    "pKi": 8.42
  },
  {
    "molecule": "CN1CC(C(=O)NC2CCCC2O)CC2c3cccc4[nH]cc(c34)CC21 (centres unmarked)",
    "pKi": 8.10
  },
  {
    "molecule": "CC(C)n1cc2c3c(cccc31)C1CC(C(=O)N[C@H]3CC[C@@H](O)CC3)CN(C)C1C2 (some centres unmarked)",
    "pKi": 8.37
  },
  {
    "molecule": "Cc1ccc2c(CCN)c[nH]c2c1Cl",
    "pKi": 7.95
  },
  {
    "molecule": "CC(N)Cc1c[nH]c2ccc(O)cc12 (centres unmarked)",
    "pKi": 7.92
  }
]

----------
target: Human 5-HT2A (Homo sapiens, UniProt P28223)
Sequence (P28223 whole entry): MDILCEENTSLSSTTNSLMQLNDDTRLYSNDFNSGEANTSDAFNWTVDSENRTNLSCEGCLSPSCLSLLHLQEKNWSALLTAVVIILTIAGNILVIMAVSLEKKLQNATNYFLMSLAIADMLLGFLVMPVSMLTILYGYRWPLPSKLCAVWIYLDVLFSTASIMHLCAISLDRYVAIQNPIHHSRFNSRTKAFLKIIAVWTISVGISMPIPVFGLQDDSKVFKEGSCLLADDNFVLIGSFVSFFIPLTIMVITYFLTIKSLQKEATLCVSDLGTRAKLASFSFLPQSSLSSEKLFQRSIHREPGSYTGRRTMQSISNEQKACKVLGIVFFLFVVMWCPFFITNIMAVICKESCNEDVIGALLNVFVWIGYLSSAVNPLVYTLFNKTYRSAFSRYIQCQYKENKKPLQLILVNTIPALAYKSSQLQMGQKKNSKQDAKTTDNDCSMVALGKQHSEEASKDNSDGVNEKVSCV
methodSummary: [125I]DOI radioligand binding, human 5-HT2A
recordedConditions: [125I]DOI; AVG; read-out: Ki Human 5-HT2A
measure: log10 of Ki (log10 of the value in nM)

[
  {
    "compound": "CC(C)n1cc2c3c(cccc31)C1CC(C(=O)NC3CCCCC3O)CN(C)C1C2 (stereo not shown) [drawing 85]",
    "target": "Human 5-HT2A (Homo sapiens, UniProt P28223)",
    "experimentalResult": 2.03
  },
  {
    "compound": "Cc1ccc2c(CCN)c[nH]c2c1Br",
    "target": "Human 5-HT2A (Homo sapiens, UniProt P28223)",
    "experimentalResult": 1.53
  },
  {
    "compound": "CC(C)n1cc2c3c(cccc31)C1CC(C(=O)NC3CCCCC3O)CN(C)C1C2 (stereo not shown) [drawing 86]",
    "target": "Human 5-HT2A (Homo sapiens, UniProt P28223)",
    "experimentalResult": 1.20
  },
  {
    "compound": "CC(C)n1cc2c3c(cccc31)C1CC(C(=O)NC3CCCCC3O)CN(C)C1C2 (stereo not shown) [drawing 87]",
    "target": "Human 5-HT2A (Homo sapiens, UniProt P28223)",
    "experimentalResult": 1.27
  },
  {
    "compound": "CC(C)n1cc2c3c(cccc31)C1CC(C(=O)N[C@H]3CC[C@@H](O)CC3)CN(C)C1C2 (stereo partly shown)",
    "target": "Human 5-HT2A (Homo sapiens, UniProt P28223)",
    "experimentalResult": 1.05
  },
  {
    "compound": "CN1CC(C(=O)N[C@H]2CC[C@H](O)CC2)CC2c3cccc4[nH]cc(c34)CC21 (stereo partly shown)",
    "target": "Human 5-HT2A (Homo sapiens, UniProt P28223)",
    "experimentalResult": 0.10
  },
  {
    "compound": "CC(C)n1cc2c3c(cccc31)C1CC(C(=O)N[C@H]3CC[C@H](O)CC3)CN(C)C1C2 (stereo partly shown)",
    "target": "Human 5-HT2A (Homo sapiens, UniProt P28223)",
    "experimentalResult": 1.33
  },
  {
    "compound": "CC(C)n1cc2c3c(cccc31)C1CC(C(=O)NC3CCCC3O)CN(C)C1C2 (stereo not shown)",
    "target": "Human 5-HT2A (Homo sapiens, UniProt P28223)",
    "experimentalResult": 1.34
  },
  {
    "compound": "CC(C)n1cc2c3c(cccc31)C1CC(C(=O)NC3CCCCC3O)CN(C)C1C2 (stereo not shown) [drawing 84]",
    "target": "Human 5-HT2A (Homo sapiens, UniProt P28223)",
    "experimentalResult": 1.87
  },
  {
    "compound": "Cc1ccc2c(CCN)c[nH]c2c1Cl",
    "target": "Human 5-HT2A (Homo sapiens, UniProt P28223)",
    "experimentalResult": 1.44
  }
]
